- Target or test system: 5-HT2A receptors (Rattus norvegicus)
- Assay explanation: in-vitro affinity to 5-HT2A receptors, displacement of [3H]ketanserine (Example A1)
- Format: binding
- Test settings: read-out: HT2A IC50
pIC50 values, listed per item
Here pIC50 is given on a logarithmic scale as minus log10 of the concentration in mol/L.

{"Smiles record": "CN1CCN(Cc2cnn(-c3ccc(-c4ccc(F)c(F)c4)cc3)c2-c2ccccc2F)CC1", "Attribute measured": "pIC50", "Measured number": 7.22}
{"Smiles record": "CN1CCN(Cc2cnn(-c3ccc(-c4ccccc4)cn3)c2-c2ccccc2F)CC1", "Attribute measured": "pIC50", "Measured number": 7.62}
{"Smiles record": "OCCNCc1cnn(-c2ccc(-c3ccccc3)cc2)c1-c1ccccc1F", "Attribute measured": "pIC50", "Measured number": 8.28}
{"Smiles record": "COc1ccc(-c2c(CN3CCN(CCN4CCCC4)CC3)cnn2-c2ccc(-c3ccc(F)cc3)cc2)cc1", "Attribute measured": "pIC50", "Measured number": 7.25}
{"Smiles record": "CN1CCN(Cc2cnn(-c3ccc(-c4ccc(F)cc4)cc3)c2-c2cnccn2)CC1", "Attribute measured": "pIC50", "Measured number": 7.07}

Report measured pIC50; entry is c1ccc(-c2ccc(-n3ncc(CN4CCNCC4)c3-c3ccccn3)cc2)cc1
6.70

Report measured pIC50; entry is CN(C)CCN(C)Cc1cnn(-c2ccc(-c3ccc(F)cc3)cc2)c1-c1ccccc1Cl
7.36

Report measured pIC50; entry is CN1CCN(Cc2cnn(-c3ccc(-c4ccccc4F)cc3)c2-c2ccc(F)cc2)CC1
6.68

----------
- Target or test system: 5-HT2A receptors (Rattus norvegicus)
- Assay explanation: in-vitro affinity to 5-HT2A receptors, displacement of [3H]ketanserine (Example A1)
- Format: binding
- Test settings: target not given; description names affinity to 5-HT2A receptors; read-out: IC50
pIC50 values, listed per item
Here pIC50 is given on a logarithmic scale as minus log10 of the concentration in mol/L.

Before answering, review these 5 worked examples.
{"Compound": "CC(C)(C)OC(=O)CNCc1cnn(-c2ccc(-c3ccccc3)cc2)c1-c1cccnc1", "Target or test system": "5-HT2A receptors (Rattus norvegicus)", "Attribute measured": "pIC50", "Measured number": 6.00}
{"Compound": "OCc1cnn(-c2ccc(-c3ccccc3)cc2)c1-c1ccccc1F", "Target or test system": "5-HT2A receptors (Rattus norvegicus)", "Attribute measured": "pIC50", "Measured number": 5.92}
{"Compound": "Fc1ccc(-c2ccc(-n3ncc(CN4CCCC4)c3-c3ccccc3F)cn2)cc1", "Target or test system": "5-HT2A receptors (Rattus norvegicus)", "Attribute measured": "pIC50", "Measured number": 7.12}
{"Compound": "O=C(c1cnn(-c2ccc(-c3ccccc3)cc2)c1-c1ccccc1F)N1CCOCC1", "Target or test system": "5-HT2A receptors (Rattus norvegicus)", "Attribute measured": "pIC50", "Measured number": 6.44}
{"Compound": "CC(=O)NC1CCN(Cc2cnn(-c3ccc(-c4ccccc4)cc3)c2-c2ccccc2F)C1 (stereo not shown)", "Target or test system": "5-HT2A receptors (Rattus norvegicus)", "Attribute measured": "pIC50", "Measured number": 7.54}

// switching to the query compound
Report measured pIC50; entry is Fc1ccccc1-c1ccc(-n2ncc(CN3CCOCC3)c2-c2ccccc2F)cn1
6.22

----------
pIC50 values, listed per item
- Target or test system: 5-HT2A receptors (Rattus norvegicus, UniProt P14842)
- Sequence (P14842 whole entry): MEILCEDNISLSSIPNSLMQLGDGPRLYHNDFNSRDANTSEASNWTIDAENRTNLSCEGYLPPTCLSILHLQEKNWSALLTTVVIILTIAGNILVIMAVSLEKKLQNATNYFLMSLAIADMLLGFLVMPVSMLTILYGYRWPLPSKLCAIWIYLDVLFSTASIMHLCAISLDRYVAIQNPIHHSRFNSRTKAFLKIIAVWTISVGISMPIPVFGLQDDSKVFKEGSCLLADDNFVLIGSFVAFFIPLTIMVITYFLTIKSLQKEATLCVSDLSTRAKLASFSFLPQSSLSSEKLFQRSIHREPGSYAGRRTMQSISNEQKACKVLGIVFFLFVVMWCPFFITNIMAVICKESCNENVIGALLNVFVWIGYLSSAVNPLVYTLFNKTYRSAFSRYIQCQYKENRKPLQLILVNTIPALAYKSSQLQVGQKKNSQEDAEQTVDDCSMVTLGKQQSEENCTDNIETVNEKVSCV
- Assay explanation: in-vitro affinity to 5-HT2A receptors, displacement of [3H]ketanserine (Example A1)
- Format: binding
- Test settings: target not given; description names affinity to 5-HT2A receptors; read-out: IC50
Here pIC50 is given on a logarithmic scale as minus log10 of the concentration in mol/L.

Before answering, review these 3 worked examples.
{"Compound": "CCOC(=O)N1CCC(NCc2cnn(-c3ccc(-c4ccccc4)cc3)c2-c2ccccc2F)CC1", "Attribute measured": "pIC50", "Measured number": 6.24}
{"Compound": "Fc1ccccc1-c1c(CNCc2nc3ccccc3[nH]2)cnn1-c1ccc(-c2ccccc2)cc1", "Attribute measured": "pIC50", "Measured number": 7.12}
{"Compound": "Fc1ccccc1-c1c(CCN2CCOCC2)cnn1-c1ccc(-c2ccccc2)cc1 [(185)]", "Attribute measured": "pIC50", "Measured number": 7.40}

// switching to the query compound
Report measured pIC50; entry is NC(=O)C1CCCN1Cc1cnn(-c2ccc(-c3ccccc3)cc2)c1-c1ccccc1F (stereo not drawn)
5.77

----------
pIC50 values, listed per item
- Target or test system: 5-HT2A receptors (Rattus norvegicus, UniProt P14842)
- Assay explanation: in-vitro affinity to 5-HT2A receptors, displacement of [3H]ketanserine (Example A1)
- Format: binding
- Test settings: target not given; description names affinity to 5-HT2A receptors; read-out: IC50
Here pIC50 is given on a logarithmic scale as minus log10 of the concentration in mol/L.

Before answering, review these 7 worked examples.
{"Compound": "CCNC(=O)CN1CCN(Cc2cnn(-c3ccc(-c4ccccc4)cc3)c2-c2ccccc2F)CC1", "Attribute measured": "pIC50", "Measured number": 6.64}
{"Compound": "OC1CC2CCC(C1)N2Cc1cnn(-c2ccc(-c3ccccc3)cc2)c1-c1ccccc1F (centres unmarked)", "Attribute measured": "pIC50", "Measured number": 5.96}
{"Compound": "COC(=O)c1cc(NCc2cnn(-c3ccc(-c4ccccc4)cc3)c2-c2ccccc2F)cn1C", "Attribute measured": "pIC50", "Measured number": 6.92}
{"Compound": "O=C(CNCc1cnn(-c2ccc(-c3ccccc3)cc2)c1-c1ccccc1F)Nc1ccc([N+](=O)[O-])cc1", "Attribute measured": "pIC50", "Measured number": 7.00}
{"Compound": "Cc1nn(C)c(C)c1NCc1cnn(-c2ccc(-c3ccccc3)cc2)c1-c1ccccc1F", "Attribute measured": "pIC50", "Measured number": 6.23}
{"Compound": "CC(C)(C)OC(=O)N1CCN(Cc2cnn(-c3ccc(-c4ccccc4)cc3)c2-c2ccccn2)CC1", "Attribute measured": "pIC50", "Measured number": 6.11}
{"Compound": "CN1CCN(Cc2cnn(-c3ccc(-c4cc(F)ccc4F)nc3)c2-c2ccccc2F)CC1", "Attribute measured": "pIC50", "Measured number": 6.37}

Report measured pIC50; entry is Fc1ccccc1-c1c(CN2CCc3ccccc3C2)cnn1-c1ccc(-c2ccccc2)cc1
7.15

----------
- Target or test system: 5 HT2C receptor (Homo sapiens, UniProt P28335)
- Sequence (P28335 33-458): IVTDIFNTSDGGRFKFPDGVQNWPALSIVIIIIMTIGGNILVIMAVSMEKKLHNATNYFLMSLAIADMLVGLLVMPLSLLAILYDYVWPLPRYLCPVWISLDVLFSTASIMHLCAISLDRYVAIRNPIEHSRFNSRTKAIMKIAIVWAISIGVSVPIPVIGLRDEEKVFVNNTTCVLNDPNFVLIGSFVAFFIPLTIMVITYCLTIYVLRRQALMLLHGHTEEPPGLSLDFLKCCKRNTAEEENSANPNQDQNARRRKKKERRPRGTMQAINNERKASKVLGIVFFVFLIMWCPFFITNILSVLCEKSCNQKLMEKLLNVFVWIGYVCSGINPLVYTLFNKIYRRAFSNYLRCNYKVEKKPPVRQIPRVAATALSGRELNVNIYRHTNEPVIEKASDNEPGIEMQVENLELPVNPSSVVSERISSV
pIC50 values, listed per item
Here pIC50 is given on a logarithmic scale as minus log10 of the concentration in mol/L.

{"Compound": "CN1CCN(Cc2cnn(-c3ccc(-c4ccccc4)cc3)c2-c2ccccc2F)CC1", "pIC50": 6.22}
{"Compound": "OC1CCN(Cc2cnn(-c3ccc(-c4ccc(F)cc4)cc3)c2-c2ccc(Cl)cc2)C1 (centres unmarked)", "pIC50": 6.00}
{"Compound": "CC(=O)NC1CCN(Cc2cnn(-c3ccc(-c4ccccc4)cc3)c2-c2ccccc2F)C1 (centres unmarked)", "pIC50": 6.00}
{"Compound": "O=C1NCN(c2ccccc2)C12CCN(Cc1cnn(-c3ccc(-c4ccccc4)cc3)c1-c1ccccc1F)CC2", "pIC50": 6.00}
{"Compound": "CN1CCN(Cc2cnn(-c3ccc(OC(F)(F)F)cc3)c2-c2ccccc2F)CC1", "pIC50": 6.31}

Report measured pIC50; entry is CN1CCN(Cc2cnn(-c3ccc(-c4ccc(F)c(F)c4)cc3)c2-c2ccccc2F)CC1
6.47

Report measured pIC50; entry is CN1CCN(Cc2cnn(-c3ccc(-c4ccc(Cl)cc4)cc3)c2-c2ccccc2F)CC1
6.48

Report measured pIC50; entry is Cn1ccnc1CNCc1cnn(-c2ccc(-c3ccccc3)cc2)c1-c1ccccc1
6.00

----------
- Target or test system: UniProt:P14842
- Assay explanation: in-vitro affinity to 5-HT2A receptors, displacement of [3H]ketanserine (Example A1)
- Format: binding
- Test settings: target not given; description names affinity to 5-HT2A receptors; read-out: IC50
pIC50: −log10 of the molar value.
Class class 1: pIC50 at least 7. Class class 0: pIC50 below 7.

Please review the following examples before continuing.
{"Molecule": "OC1CCN(Cc2cnn(-c3ccc(-c4ccccc4)cc3)c2-c2ccccc2F)CC1", "Cat": "class 0"}
{"Molecule": "CNC(=O)CNCc1cnn(-c2ccc(-c3ccccc3)cc2)c1-c1ccccc1F", "Cat": "class 0"}
{"Molecule": "CN1CCN(CC(O)CC(O)c2cnn(-c3ccc(-c4ccccc4)cc3)c2-c2ccccc2F)CC1 (stereo not drawn)", "Cat": "class 0"}
{"Molecule": "CN1CCN(Cc2cnn(-c3ccc(-c4ccsc4)cc3)c2-c2ccco2)CC1", "Cat": "class 1"}
{"Molecule": "CN1CCN(C(=O)c2cnn(-c3ccc(-c4ccccc4)cc3)c2-c2ccccc2F)CC1", "Cat": "class 0"}

Does the molecule CN1CCN(Cc2cnn(-c3ccc(-c4ccccc4)cc3)c2-c2ccccc2F)CC1 have recorded pIC50 that is 7 or more?
class 1

Does the molecule CN1CCN(Cc2cnn(-c3ccc(-c4ccsc4)cc3)c2-c2ccccc2)CC1 have recorded pIC50 that is 7 or more?
class 1

Does the molecule CN(CC(N)=O)Cc1cnn(-c2ccc(-c3ccccc3)cc2)c1-c1ccccc1F have recorded pIC50 that is 7 or more?
class 0

Does the molecule CN1CCN(Cc2cnn(-c3ccc(-c4ccccc4)cc3)c2-c2cccnc2)CC1 have recorded pIC50 that is 7 or more?
class 0
